details: human;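 also: human cholestatic liver injury, shown by histopathology or by peak ALT or AST elevation over alkaline phosphatase ratio below 2, value counts indexed literature reports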
Outcome label depends on Hepatotoxicity (choleostasis) relative to 1: at/above gives Yes, below gives No.

Compound: O=C1CN(/N=C/c2ccc([N+](=O)[O-])o2)C(=O)N1CO
Classification: No
//
Compound: CO[C@@H]1[C@@H](OC(N)=O)[C@@H](O)[C@H](Oc2ccc3c(O)c(NC(=O)c4ccc(O)c(CC=C(C)C)c4)c(=O)oc3c2C)OC1(C)C
Classification: Yes
//
Compound: CC(CN1c2ccccc2Sc2ccccc21)N(C)C (stereo unspecified)
Classification: No
//
Compound: C[C@H](CS)C(=O)N1CCC[C@H]1C(=O)O
Classification: Yes

Query: Dear colleague, could you confirm whether CO/N=C(\C(=O)N[C@@H]1C(=O)N2C(C(=O)O)=C(CSc3cnns3)CS[C@H]12)c1csc(N)n1 has Hepatotoxicity (choleostasis) at or above 1?
Response: No

Query: Dear colleague, could you confirm whether O=c1[nH]cnc2c1ncn2[C@H]1CC[C@@H](CO)O1 has Hepatotoxicity (choleostasis) at or above 1?
Response: Yes

Query: Dear colleague, could you confirm whether C#C[C@]1(O)CC[C@H]2[C@@H]3CCC4=CCCC[C@@H]4[C@H]3CC[C@@]21C has Hepatotoxicity (choleostasis) at or above 1?
Response: Yes

Query: Dear colleague, could you confirm whether C[C@]12CCC(=O)C=C1CC[C@@H]1[C@@H]2CC[C@@]2(C)[C@H]1CC[C@]2(C)O has Hepatotoxicity (choleostasis) at or above 1?
Response: Yes

Query: Dear colleague, could you confirm whether NC(=O)CC[C@@H]1NC(=O)[C@H](Cc2ccccc2)NC(=O)[C@H](Cc2ccc(O)cc2)NC(=O)CCSSC[C@@H](C(=O)N2CCC[C@H]2C(=O)N[C@H](CCCN=C(N)N)C(=O)NCC(N)=O)NC(=O)[C@H](CC(N)=O)NC1=O has Hepatotoxicity (choleostasis) at or above 1?
Response: No

Query: Dear colleague, could you confirm whether C[C@@H]1C[C@H]2[C@@H]3CCC4=CC(=O)C=C[C@]4(C)[C@@]3(F)[C@@H](O)C[C@]2(C)[C@@]1(O)C(=O)CO has Hepatotoxicity (choleostasis) at or above 1?
Response: No

Query: Dear colleague, could you confirm whether Nc1nc(=O)[nH]cc1F has Hepatotoxicity (choleostasis) at or above 1?
Response: Yes
